Biological target: recombinant homomeric GluA4 AMPA receptor (Rattus norvegicus)
Construct: expressed in transfected cells; host or cells: HEK293-T/17 (CRL-11268)
Experiment: Whole-cell patch clamp of recombinant GluA4 receptors in HEK293-T/17 cells
Assay type: cell-based
Details: HEK293T/17, read-out: GluA4 peak current as percent of control amplitude
Parameter remaining activity at 30 µM: see the listing below.
Report the value in % with no unit label.

Answered cases to consult:
>>> observed_value("O=C(O)C[C@@]12O[C@H]3CCCO[C@H]3C1CN[C@H]2C(=O)O (some centres unmarked) [IKM-110]")
86
>>> observed_value("O=C(O)C[C@@]12O[C@H]3CCCCO[C@H]3C1CN[C@H]2C(=O)O (some centres unmarked) [IKM-98]")
88
>>> observed_value("O=C(O)C[C@@]12O[C@H]3C=CCN[C@H]3C1C(=O)N[C@H]2C(=O)O (some centres unmarked) [IKM-27]")
80

Entry O=C(O)C[C@@]12O[C@H]3[C@H](O)[C@H](O)CO[C@H]3C1CN[C@H]2C(=O)O (some centres unmarked) [IKM-86] has what remaining activity at 30 µM?
81

Entry O=C(O)C[C@@]12O[C@H]3[C@H](O)[C@H](O)CCO[C@H]3C1CN[C@H]2C(=O)O (some centres unmarked) [IKM-107] has what remaining activity at 30 µM?
95

---

Target: recombinant homomeric GluA4 AMPA receptor (Rattus norvegicus, UniProt P19493)
Sequence (P19493 21-902 isoform P19493-2 limits assumed): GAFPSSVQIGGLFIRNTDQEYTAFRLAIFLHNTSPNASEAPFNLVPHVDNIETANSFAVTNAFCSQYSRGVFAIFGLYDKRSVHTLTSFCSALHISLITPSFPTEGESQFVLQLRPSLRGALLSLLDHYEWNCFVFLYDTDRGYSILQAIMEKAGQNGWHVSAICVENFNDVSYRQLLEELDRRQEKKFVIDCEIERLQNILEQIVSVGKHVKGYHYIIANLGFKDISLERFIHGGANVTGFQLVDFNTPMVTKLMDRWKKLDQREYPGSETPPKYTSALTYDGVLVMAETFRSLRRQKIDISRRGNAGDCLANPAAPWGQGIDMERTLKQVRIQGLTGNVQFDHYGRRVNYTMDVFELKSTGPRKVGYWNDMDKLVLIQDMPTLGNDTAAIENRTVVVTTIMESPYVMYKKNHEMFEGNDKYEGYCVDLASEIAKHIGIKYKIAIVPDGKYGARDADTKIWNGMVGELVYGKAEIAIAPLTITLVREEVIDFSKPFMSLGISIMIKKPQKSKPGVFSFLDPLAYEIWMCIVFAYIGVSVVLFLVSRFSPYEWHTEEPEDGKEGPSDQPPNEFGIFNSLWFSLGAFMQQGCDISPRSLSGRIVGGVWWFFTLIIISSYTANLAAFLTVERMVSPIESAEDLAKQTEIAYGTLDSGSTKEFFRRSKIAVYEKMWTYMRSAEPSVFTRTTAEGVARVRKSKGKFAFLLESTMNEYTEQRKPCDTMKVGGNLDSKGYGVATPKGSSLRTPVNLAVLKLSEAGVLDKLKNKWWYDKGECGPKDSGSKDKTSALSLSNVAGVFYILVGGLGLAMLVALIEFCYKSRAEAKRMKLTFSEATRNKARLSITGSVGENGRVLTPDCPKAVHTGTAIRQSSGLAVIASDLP
Assay: Whole-cell patch clamp of recombinant GluA4 receptors in HEK293-T/17 cells
Settings: currents evoked by 10 mM glutamate
test_readout: IC50 (µM)
Report the value in µM with no unit label.

Which measured IC50 belongs to O=C(O)C[C@@]12O[C@H]3C=CCN[C@H]3C1CN[C@H]2C(=O)O (stereo partly shown) , tested on recombinant homomeric GluA4 AMPA receptor (Rattus norvegicus, UniProt P19493)?
60

---

Parameter inhibition at 30 µM: see the listing below.
Target: recombinant homomeric GluA4 AMPA receptor (Rattus norvegicus)
Construct: expressed in transfected cells; host or cells: HEK293-T/17 (CRL-11268)
Assay: Whole-cell patch clamp of recombinant GluA4 receptors in HEK293-T/17 cells
Assay type: cell-based
Details: HEK293T/17, read-out: reduction from control GluA4 peak glutamate current amplitude (percent inhibition)

Answered cases to consult:
>>> observed_value("O=C(O)C[C@@]12O[C@H]3CCCO[C@H]3C1CN[C@H]2C(=O)O (some centres unmarked)")
"14%"
>>> observed_value("O=C(O)C[C@@]12O[C@H]3C=CCN[C@H]3C1C(=O)N[C@H]2C(=O)O (some centres unmarked)")
"20%"
>>> observed_value("O=C(O)C[C@@]12O[C@H]3[C@H](O)[C@H](O)CCO[C@H]3C1CN[C@H]2C(=O)O (some centres unmarked)")
"5%"
>>> observed_value("O=C(O)C[C@@]12O[C@H]3CCCCO[C@H]3C1CN[C@H]2C(=O)O (some centres unmarked)")
"12%"

Next compound, inhibition at 30 µM to be filled in.
Entry O=C(O)C[C@@]12O[C@H]3[C@H](O)[C@H](O)CO[C@H]3C1CN[C@H]2C(=O)O (some centres unmarked) has what inhibition at 30 µM?
19%
